As shown below, each of these compounds has a reported pIC50 value.
target: TcdB CPD (Clostridioides difficile); construct: The compounds were screened against the recombinantly expressed cysteine protease domain; experiment: biochemical
Sequence (P18177 544-799 limits assumed): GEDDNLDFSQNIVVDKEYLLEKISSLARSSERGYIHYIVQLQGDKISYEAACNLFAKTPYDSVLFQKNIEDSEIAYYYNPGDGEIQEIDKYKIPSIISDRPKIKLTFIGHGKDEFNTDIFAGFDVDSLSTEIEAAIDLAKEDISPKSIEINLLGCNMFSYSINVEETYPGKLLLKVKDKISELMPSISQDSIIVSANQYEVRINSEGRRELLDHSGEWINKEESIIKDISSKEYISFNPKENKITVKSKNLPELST
Quick note: pIC50 values are minus log10 of concentrations in mol/L.

Prompt: Fill in pIC50 for record CCCCNC(=O)Cn1sc2nc(C)cc(C)c2c1=O [STF 102686]
Completion: 5.70

Prompt: Fill in pIC50 for record COC(=O)N1CCN(C(=O)Cn2sc3nc(C)cc(C)c3c2=O)CC1 [STF 102635]
Completion: 5.31

----------
Recorded IC50 values (TcdB protease (Clostridioides difficile, UniProt P18177)) are given below.
# output: bare number, implied unit µM

Example results:
Cc1ccc(Cl)c(NC(=O)c2ccccc2[Se][Se]c2ccccc2C(=O)Nc2cc(C)ccc2Cl)c1: 7.33
COc1ccc(C(C)(C)C)cc1-n1[se]c2ccccc2c1=O: 8.5
Cc1ccc(-n2[se]c3ccccc3c2=O)cc1: 4.9

Prompt: Given O=C(Nc1ccccc1F)c1ccccc1[Se][Se]c1ccccc1C(=O)Nc1ccccc1F , report its IC50 on TcdB protease (Clostridioides difficile, UniProt P18177).
Sequence (P18177 544-797 limits assumed): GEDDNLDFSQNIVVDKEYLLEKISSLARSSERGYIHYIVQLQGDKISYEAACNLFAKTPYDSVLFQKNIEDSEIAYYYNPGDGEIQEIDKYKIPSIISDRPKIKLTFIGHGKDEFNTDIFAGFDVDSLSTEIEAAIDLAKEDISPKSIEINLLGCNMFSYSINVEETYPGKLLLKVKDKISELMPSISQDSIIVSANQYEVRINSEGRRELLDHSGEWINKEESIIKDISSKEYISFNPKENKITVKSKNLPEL
Completion: 4.92

Prompt: Given O=C(Nc1ccc(F)c(Cl)c1)c1ccccc1[Se][Se]c1ccccc1C(=O)Nc1ccc(F)c(Cl)c1 , report its IC50 on TcdB protease (Clostridioides difficile, UniProt P18177).
Completion: 5.09

Prompt: Given Cc1c(Cl)cccc1NC(=O)c1ccccc1[Se][Se]c1ccccc1C(=O)Nc1cccc(Cl)c1C , report its IC50 on TcdB protease (Clostridioides difficile, UniProt P18177).
Completion: 5.97

Prompt: Given O=c1c2ccccc2[se]n1-c1ccccc1O , report its IC50 on TcdB protease (Clostridioides difficile, UniProt P18177).
Completion: 4.86

Prompt: Given O=c1c2ccccc2[se]n1-c1ccccc1 , report its IC50 on TcdB protease (Clostridioides difficile, UniProt P18177).
Completion: 5.14

Prompt: Given O=C(Nc1ccc(F)cc1F)c1ccccc1[Se][Se]c1ccccc1C(=O)Nc1ccc(F)cc1F , report its IC50 on TcdB protease (Clostridioides difficile, UniProt P18177).
Completion: 2.7
